Tested on: PC-3
protocol summary: Cytotoxicity against human PC3 cells after 48 hrs by sulforhodamine B assay
Format: functional
experimental conditions: PC-3, 48 h
property measured: GI50 (µM)
Express it in µM; write the number only.

* CCCCCCCCCCCC[C@@H](O)[C@H]1CC[C@H]([C@H](O)CCCCCCCCCCCCC2=C[C@H](CF)OC2=O)O1 | 24

# get_value(readout='GI50', item= `CCCCCCCCCCCC[C@@H](O)[C@H]1CC[C@H]([C@H](O)CCCCCCCCCCCCC2=C[C@H](C(F)F)OC2=O)O1` )
60

* * *

protocol summary: Cytotoxicity against human HBC4 cells after 48 hrs by sulforhodamine B assay
Format: functional
experimental conditions: HBC4, 48 h
property measured: GI50

Example entries and their recorded answers appear below.
• CCCCCCCCCCCC[C@@H](O)[C@H]1CC[C@H]([C@H](O)CCCCCCCCCCCCC2=C[C@H](CF)OC2=O)O1 = > 100 µM
• CCCCCCCCCCCC[C@@H](O)[C@H]1CC[C@H]([C@H](O)CCCCCCCCCCCCC2=C[C@H](C(F)(F)F)OC2=O)O1 = > 100 µM

# get_value(readout='GI50', item= CCCCCCCCCCCC[C@@H](O)[C@H]1CC[C@H]([C@H](O)CCCCCCCCCCCCC2=C[C@H](C)OC2=O)O1 [REL-SOLAMIN] )
> 100 µM

# get_value(readout='GI50', item= `CCCCCCCCCCCC[C@@H](O)[C@H]1CC[C@H]([C@H](O)CCCCCCCCCCCCC2=C[C@H](C(F)F)OC2=O)O1` )
32 µM

* * *

Below, each of the compounds is paired with its reported GI50 value.
System: NCI-H460
protocol summary: Cytotoxicity against human NCI-H460 cells after 48 hrs by sulforhodamine B assay
Type: functional
experimental conditions: NCI-H460, 48 h

Example entries and their recorded answers appear below.
* CCCCCCCCCCCC[C@@H](O)[C@H]1CC[C@H]([C@H](O)CCCCCCCCCCCCC2=C[C@H](C(F)F)OC2=O)O1 | > 100 µM
* CCCCCCCCCCCC[C@@H](O)[C@H]1CC[C@H]([C@H](O)CCCCCCCCCCCCC2=C[C@H](CF)OC2=O)O1 | 79 µM
* CCCCCCCCCCCC[C@@H](O)[C@H]1CC[C@H]([C@H](O)CCCCCCCCCCCCC2=C[C@H](C(F)(F)F)OC2=O)O1 | > 100 µM

Shift focus to the following entry.
Return GI50 measured with NCI-H460 given this compound: CCCCCCCCCCCC[C@@H](O)[C@H]1CC[C@H]([C@H](O)CCCCCCCCCCCCC2=C[C@H](C)OC2=O)O1 [REL-SOLAMIN]
> 100 µM

* * *

Below, each of the molecules is paired with its reported GI50 value.
Tested on: LOX IMVI
protocol summary: Cytotoxicity against human LOXIMVI cells after 48 hrs by sulforhodamine B assay
Type: functional
Express it in µM; write the number only.

* CCCCCCCCCCCC[C@@H](O)[C@H]1CC[C@H]([C@H](O)CCCCCCCCCCCCC2=C[C@H](C(F)F)OC2=O)O1 | 15

Shift focus to the following entry.
# get_value(readout='GI50', item= `CCCCCCCCCCCC[C@@H](O)[C@H]1CC[C@H]([C@H](O)CCCCCCCCCCCCC2=C[C@H](C)OC2=O)O1` )
29

* * *

Below, each of the molecules is paired with its reported GI50 value.
protocol summary: Cytotoxicity against human BSY1 cells after 48 hrs by sulforhodamine B assay
Format: functional
experimental conditions: BSY-1, 48 h

• CCCCCCCCCCCC[C@@H](O)[C@H]1CC[C@H]([C@H](O)CCCCCCCCCCCCC2=C[C@H](C(F)F)OC2=O)O1 = > 100 µM
• CCCCCCCCCCCC[C@@H](O)[C@H]1CC[C@H]([C@H](O)CCCCCCCCCCCCC2=C[C@H](C)OC2=O)O1 = > 100 µM
• CCCCCCCCCCCC[C@@H](O)[C@H]1CC[C@H]([C@H](O)CCCCCCCCCCCCC2=C[C@H](C(F)(F)F)OC2=O)O1 = > 100 µM

Shift focus to the following entry.
# get_value(readout='GI50', item= `CCCCCCCCCCCC[C@@H](O)[C@H]1CC[C@H]([C@H](O)CCCCCCCCCCCCC2=C[C@H](CF)OC2=O)O1` )
60 µM

* * *

Test system: HT-29
protocol summary: Cytotoxicity against human HT-29 cells after 48 hrs by sulforhodamine B assay
Type: functional
experimental conditions: HT-29, 48 h
property measured: GI50

Example entries and their recorded answers appear below.
• CCCCCCCCCCCC[C@@H](O)[C@H]1CC[C@H]([C@H](O)CCCCCCCCCCCCC2=C[C@H](C)OC2=O)O1 = > 100 µM
• CCCCCCCCCCCC[C@@H](O)[C@H]1CC[C@H]([C@H](O)CCCCCCCCCCCCC2=C[C@H](C(F)F)OC2=O)O1 = > 100 µM
• CCCCCCCCCCCC[C@@H](O)[C@H]1CC[C@H]([C@H](O)CCCCCCCCCCCCC2=C[C@H](CF)OC2=O)O1 = 63 µM

Shift focus to the following entry.
# get_value(readout='GI50', item= `CCCCCCCCCCCC[C@@H](O)[C@H]1CC[C@H]([C@H](O)CCCCCCCCCCCCC2=C[C@H](C(F)(F)F)OC2=O)O1` )
> 100 µM

* * *

Test system: SNB-75
protocol summary: Cytotoxicity against human SNB75 cells after 48 hrs by sulforhodamine B assay
Assay type: functional
experimental conditions: SNB-75, 48 h
property measured: GI50

Example entries and their recorded answers appear below.
- CCCCCCCCCCCC[C@@H](O)[C@H]1CC[C@H]([C@H](O)CCCCCCCCCCCCC2=C[C@H](C(F)F)OC2=O)O1: > 100 µM
- CCCCCCCCCCCC[C@@H](O)[C@H]1CC[C@H]([C@H](O)CCCCCCCCCCCCC2=C[C@H](C(F)(F)F)OC2=O)O1: > 100 µM
- CCCCCCCCCCCC[C@@H](O)[C@H]1CC[C@H]([C@H](O)CCCCCCCCCCCCC2=C[C@H](C)OC2=O)O1: > 100 µM

Shift focus to the following entry.
# get_value(readout='GI50', item= `CCCCCCCCCCCC[C@@H](O)[C@H]1CC[C@H]([C@H](O)CCCCCCCCCCCCC2=C[C@H](CF)OC2=O)O1` )
63 µM

* * *

Below, each of the compounds is paired with its reported GI50 value.
Tested on: MKN-28
protocol summary: Cytotoxicity against human MKN28 cells after 48 hrs by sulforhodamine B assay
Assay type: functional
experimental conditions: MKN-28, 48 h
Express it in µM; write the number only.

* CCCCCCCCCCCC[C@@H](O)[C@H]1CC[C@H]([C@H](O)CCCCCCCCCCCCC2=C[C@H](C)OC2=O)O1 | 14

# get_value(readout='GI50', item= `CCCCCCCCCCCC[C@@H](O)[C@H]1CC[C@H]([C@H](O)CCCCCCCCCCCCC2=C[C@H](C(F)F)OC2=O)O1` )
96

# get_value(readout='GI50', item= `CCCCCCCCCCCC[C@@H](O)[C@H]1CC[C@H]([C@H](O)CCCCCCCCCCCCC2=C[C@H](CF)OC2=O)O1` )
7.8

* * *

Below, each of the molecules is paired with its reported GI50 value.
Tested on: NCI-H226
protocol summary: Cytotoxicity against human NCI-H226 cells after 48 hrs by sulforhodamine B assay
Format: functional
experimental conditions: NCI-H226, 48 h

- CCCCCCCCCCCC[C@@H](O)[C@H]1CC[C@H]([C@H](O)CCCCCCCCCCCCC2=C[C@H](CF)OC2=O)O1: 51 µM
- CCCCCCCCCCCC[C@@H](O)[C@H]1CC[C@H]([C@H](O)CCCCCCCCCCCCC2=C[C@H](C)OC2=O)O1: > 100 µM
- CCCCCCCCCCCC[C@@H](O)[C@H]1CC[C@H]([C@H](O)CCCCCCCCCCCCC2=C[C@H](C(F)F)OC2=O)O1: 63 µM

Shift focus to the following entry.
Return GI50 measured with NCI-H226 given this molecule: `CCCCCCCCCCCC[C@@H](O)[C@H]1CC[C@H]([C@H](O)CCCCCCCCCCCCC2=C[C@H](C(F)(F)F)OC2=O)O1`
88 µM
